# assayed.system: Adenosine receptor A1 (Rattus norvegicus)
# Sequence (P25099 whole entry): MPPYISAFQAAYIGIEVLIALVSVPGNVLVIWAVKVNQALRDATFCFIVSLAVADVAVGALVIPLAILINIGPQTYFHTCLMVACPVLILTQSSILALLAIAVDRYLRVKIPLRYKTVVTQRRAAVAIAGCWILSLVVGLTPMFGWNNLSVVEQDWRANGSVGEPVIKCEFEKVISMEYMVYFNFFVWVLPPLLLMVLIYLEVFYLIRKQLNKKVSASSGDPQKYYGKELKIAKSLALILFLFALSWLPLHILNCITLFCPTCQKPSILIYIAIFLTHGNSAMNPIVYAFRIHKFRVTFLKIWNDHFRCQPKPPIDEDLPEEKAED
# protocol: Displacement of [3H]R-N6-phenylisopropyladenosine from adenosine A1 receptor in rat cerebral cortical membrane
# Assay type: cell membranes
# test.parameters: read-out: Ki
value.kind: Ki

>>> df
                                   molecule  measurement
0  OCC1CC=CC1n1cnc2c(NC3CC3)ncnc21 (racemic)      32.3 µM
1  OCC1CC=CC1n1cnc2c(NC3CCCC3)ncnc21 (racemic)         3 µM
2  OCC1CC=CC1n1cnc2c(NCc3ccccc3I)ncnc21 (racemic)      25.5 µM

###

# assayed.system: Adenosine receptor A1 (Rattus norvegicus)
# protocol: Displacement of [3H]R-N6-phenylisopropyladenosine from adenosine A1 receptor in rat cerebral cortical membrane at 100 uM
# Format: cell membranes
Label NOT MET if inhibition falls below 30%; label MET in every other case.

In [3]: df
Out[3]:
                                   compound  category_label
0  CNC(=O)C1CCCC1n1cnc2c(NCc3ccccc3I)ncnc21 (racemic)         NOT MET
1  CNC(=O)C1CC=CC1n1cnc2c(NC3CC3)ncnc21 (racemic)             MET
2  CNC(=O)C1CC=CC1n1cnc2c(NCc3ccccc3)ncnc21 (racemic)         NOT MET
3  CNC(=O)C1CCCC1n1cnc2c(NCc3ccccc3)ncnc21 (racemic)         NOT MET
4  CNC(=O)C1CC=CC1n1cnc2c(NC3CCCC3)ncnc21 (racemic)         NOT MET
5  CNC(=O)C1CCCC1n1cnc2c(NC3CC3)ncnc21 (racemic)         NOT MET
6  CNC(=O)C1CC=CC1n1cnc2c(N)ncnc21 (racemic)         NOT MET
7       NNc1ncnc2c1ncn2C1C=CCC1CO (racemic)         NOT MET
8  CNC(=O)C1CCCC1n1cnc2c(NC3CCCC3)ncnc21 (racemic)             MET
9  CNC(=O)C1CCCC1n1cnc2c(N)ncnc21 (racemic)         NOT MET
